# ASSAY INFO: In Vivo Toxicity of NAALADase Inhibitors (survival of mice)
# MEASUREMENT CONDITIONS: mouse, injected, 100 mg/kg, read-out: Survival Rate After 5 days
MEASUREMENT NAME: survival at 120 h (%)
Write the answer as a number in %, unit excluded.

Which survival at 120 h value is on record for O=C(O)CCC(CP(=O)(O)O)C(=O)O (stereo not shown) [2-(phosphonomethyl)pentanedioic acid] ?
100

---

# ASSAY INFO: In Vivo Toxicity of NAALADase Inhibitors (survival of mice)
# MEASUREMENT CONDITIONS: mouse, injected, 30 mg/kg, read-out: Survival Rate After 5 days
MEASUREMENT NAME: survival at 120 h (%)
Numbers only; they are read as %.

GET /values?readout=survival at 120 h&item= O=C(O)CCC(CP(=O)(O)O)C(=O)O (stereo not shown)
100

---

# ASSAY INFO: In Vivo Toxicity of NAALADase Inhibitors (survival of mice)
# MEASUREMENT CONDITIONS: mouse, injected, 300 mg/kg, read-out: Survival Rate After 5 days
MEASUREMENT NAME: survival at 120 h (%)
Give just the number in %; leave the unit off.

Entry O=C(O)CCC(CP(=O)(O)O)C(=O)O (stereo not shown) : reported survival at 120 h = ?
100

---

# ASSAY INFO: In Vivo Toxicity of NAALADase Inhibitors (survival of mice)
# MEASUREMENT CONDITIONS: mouse, injected, 1 mg/kg, read-out: Survival Rate After 5 days
MEASUREMENT NAME: survival at 120 h (%)
Answer in %, number only, no unit symbol.

Would you kindly share the measured survival at 120 h for O=C(O)CCC(CP(=O)(O)O)C(=O)O (stereo not shown) [2-(phosphonomethyl)pentanedioic acid] ?
100

---

# ASSAY INFO: In Vivo Toxicity of NAALADase Inhibitors (survival of mice)
# MEASUREMENT CONDITIONS: mouse, injected, 10 mg/kg, read-out: Survival Rate After 5 days
MEASUREMENT NAME: survival at 120 h (%)
Just the number in %, nothing appended.

Looking for the measured survival at 120 h of O=C(O)CCC(CP(=O)(O)O)C(=O)O (stereo not shown) , can you help?
100
